- Study System: Histone-lysine N-methyltransferase 2B (Homo sapiens)
pIC50: −log10 of the molar value.
Quantity: pIC50

CCCc1cc(C)[nH]c(=O)c1CNC(=O)c1cc(-c2ccnc(N3CCN(C)CC3)c2)cc2c1cnn2C(C)C; < 4.00

###

Let's go through some IC50 measurements on Protein arginine N-methyltransferase 5 (Homo sapiens, UniProt O14744) together.
Sequence (O14744 whole entry): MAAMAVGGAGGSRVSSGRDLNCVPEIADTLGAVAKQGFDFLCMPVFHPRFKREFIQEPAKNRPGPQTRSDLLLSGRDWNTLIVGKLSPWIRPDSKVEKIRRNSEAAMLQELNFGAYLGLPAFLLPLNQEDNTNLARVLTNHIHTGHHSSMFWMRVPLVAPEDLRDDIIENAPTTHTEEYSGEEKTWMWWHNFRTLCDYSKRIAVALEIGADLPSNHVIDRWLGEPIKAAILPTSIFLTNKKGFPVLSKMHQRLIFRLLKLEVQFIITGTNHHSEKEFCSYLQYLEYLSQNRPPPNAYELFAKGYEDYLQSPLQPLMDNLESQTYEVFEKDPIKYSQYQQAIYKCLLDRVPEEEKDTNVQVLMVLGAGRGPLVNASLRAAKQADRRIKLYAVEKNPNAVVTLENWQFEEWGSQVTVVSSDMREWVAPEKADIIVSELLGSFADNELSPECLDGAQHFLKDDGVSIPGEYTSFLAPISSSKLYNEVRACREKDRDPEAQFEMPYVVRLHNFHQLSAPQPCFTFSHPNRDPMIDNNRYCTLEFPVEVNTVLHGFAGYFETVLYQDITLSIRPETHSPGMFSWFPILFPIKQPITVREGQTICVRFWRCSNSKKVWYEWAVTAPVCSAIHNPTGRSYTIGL
Quantity: IC50

CCCc1cc(C)[nH]c(=O)c1CNC(=O)c1cc(-c2ccnc(N3CCN(C)CC3)c2)cc2c1cnn2C(C)C; > 100 µM
CCCc1cc(C)[nH]c(=O)c1CNC(=O)c1cc(-c2ccc(N3CCN(C)CC3)nc2)cc2c1cnn2C(C)C; > 100 µM

###

- Study System: Histone-lysine N-methyltransferase SETD7 (Homo sapiens)
- Sequence (Q8WTS6 whole entry): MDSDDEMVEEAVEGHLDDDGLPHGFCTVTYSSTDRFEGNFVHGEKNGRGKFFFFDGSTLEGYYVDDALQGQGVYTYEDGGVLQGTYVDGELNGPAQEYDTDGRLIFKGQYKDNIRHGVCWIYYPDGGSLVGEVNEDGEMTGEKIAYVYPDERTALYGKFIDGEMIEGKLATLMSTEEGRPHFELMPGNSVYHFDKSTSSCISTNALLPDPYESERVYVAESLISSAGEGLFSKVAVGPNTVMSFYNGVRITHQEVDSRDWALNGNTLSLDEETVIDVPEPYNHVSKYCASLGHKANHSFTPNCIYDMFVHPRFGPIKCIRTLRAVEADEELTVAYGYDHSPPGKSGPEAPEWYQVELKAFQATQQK
pIC50: −log10 of the molar value.
Quantity: pIC50

CCCc1cc(C)[nH]c(=O)c1CNC(=O)c1cc(-c2ccnc(N3CCN(C)CC3)c2)cc2c1cnn2C(C)C; 4.20

###

- Study System: EZH2/SUZ12/EED/RBBP7/RBBP4
- Protocol Notes: Inhibition of PRC2 complex of FLAG-EZH2, EED, SUZ12, AEBP2 and RbAp48 using histone H3 peptide (21 to 44) as substrate and [3H]SAM after 30 mins
- Conditions Used: read-out: Ki(app)
pKi: −log10 of the molar value.
// reported pKi per item
Quantity: pKi

CCCc1cc(C)[nH]c(=O)c1CNC(=O)c1cc(-c2ccc(N3CCN(C)CC3)nc2)cc2c1cnn2C(C)C; 9.22
Cc1cc(C)c(CNC(=O)c2cc(-c3ccc(N4CCN(C)CC4)nc3)cc3c2cnn3C(C)C)c(=O)[nH]1; 8.10
Cc1cc(C)c(CNC(=O)c2cc(C3CC3)cc3c2cnn3C(C)C)c(=O)[nH]1; 7.13
Cc1cc(C)c(CNC(=O)c2cc(-c3ccnc(N4CCN(C)CC4)c3)cc3c2cnn3C(C)C)c(=O)[nH]1; 7.85
CCCc1cc(C)[nH]c(=O)c1CNC(=O)c1cc(-c2ccnc(N3CCN(C)CC3)c2)cc2c1cnn2C(C)C; 8.92

###

Histone-lysine N-methyltransferase, H3 lysine-79 specific (Homo sapiens): recorded IC50 for assorted compounds
Sequence (Q8TEK3 whole entry): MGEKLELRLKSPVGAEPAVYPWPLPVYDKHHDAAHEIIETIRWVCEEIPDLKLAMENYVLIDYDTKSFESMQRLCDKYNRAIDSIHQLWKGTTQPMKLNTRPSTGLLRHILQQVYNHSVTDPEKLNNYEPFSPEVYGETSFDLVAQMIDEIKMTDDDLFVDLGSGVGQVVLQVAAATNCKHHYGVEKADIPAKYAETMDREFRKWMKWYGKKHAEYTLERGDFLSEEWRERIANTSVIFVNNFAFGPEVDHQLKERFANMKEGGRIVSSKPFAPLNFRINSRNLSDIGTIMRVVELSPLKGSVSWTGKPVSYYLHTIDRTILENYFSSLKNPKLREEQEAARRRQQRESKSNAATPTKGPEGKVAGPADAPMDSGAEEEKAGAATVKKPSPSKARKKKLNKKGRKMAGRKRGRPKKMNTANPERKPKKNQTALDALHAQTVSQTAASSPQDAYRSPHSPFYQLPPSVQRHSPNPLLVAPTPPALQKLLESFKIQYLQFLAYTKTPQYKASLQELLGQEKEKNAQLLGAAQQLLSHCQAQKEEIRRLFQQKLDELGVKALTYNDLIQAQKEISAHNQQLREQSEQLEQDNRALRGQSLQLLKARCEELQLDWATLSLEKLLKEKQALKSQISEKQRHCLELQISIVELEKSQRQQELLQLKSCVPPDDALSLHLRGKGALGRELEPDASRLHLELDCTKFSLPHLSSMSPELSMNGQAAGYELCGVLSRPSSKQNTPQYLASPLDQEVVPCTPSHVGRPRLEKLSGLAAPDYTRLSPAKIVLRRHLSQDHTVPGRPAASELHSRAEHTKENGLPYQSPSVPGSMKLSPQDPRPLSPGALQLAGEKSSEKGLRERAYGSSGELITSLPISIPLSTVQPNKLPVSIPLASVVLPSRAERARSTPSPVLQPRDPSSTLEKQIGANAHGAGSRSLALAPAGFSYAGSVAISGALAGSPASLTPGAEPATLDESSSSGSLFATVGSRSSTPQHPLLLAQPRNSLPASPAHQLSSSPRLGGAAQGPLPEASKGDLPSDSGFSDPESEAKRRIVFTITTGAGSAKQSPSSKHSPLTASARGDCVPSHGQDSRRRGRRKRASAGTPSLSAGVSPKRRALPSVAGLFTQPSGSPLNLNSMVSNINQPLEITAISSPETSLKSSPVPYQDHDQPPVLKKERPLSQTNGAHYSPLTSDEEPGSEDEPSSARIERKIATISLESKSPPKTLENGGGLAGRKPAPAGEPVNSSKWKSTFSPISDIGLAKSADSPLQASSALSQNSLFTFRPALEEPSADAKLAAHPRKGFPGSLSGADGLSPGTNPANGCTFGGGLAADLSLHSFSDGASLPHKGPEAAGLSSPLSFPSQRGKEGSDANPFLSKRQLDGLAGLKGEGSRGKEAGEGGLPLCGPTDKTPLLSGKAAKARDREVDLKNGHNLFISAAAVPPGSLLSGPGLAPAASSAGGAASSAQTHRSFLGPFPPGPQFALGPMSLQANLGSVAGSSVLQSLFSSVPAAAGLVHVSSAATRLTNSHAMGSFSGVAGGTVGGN
Quantity: IC50

CCCc1cc(C)[nH]c(=O)c1CNC(=O)c1cc(-c2ccnc(N3CCN(C)CC3)c2)cc2c1cnn2C(C)C; > 100 µM
Cc1cc(C)c(CNC(=O)c2cc(-c3ccc(N4CCN(C)CC4)nc3)cc3c2cnn3C(C)C)c(=O)[nH]1; > 100 µM
CCCc1cc(C)[nH]c(=O)c1CNC(=O)c1cc(-c2ccc(N3CCN(C)CC3)nc2)cc2c1cnn2C(C)C; > 100 µM

###

Parameter IC50: see the listing below.
- Study System: EZH2/SUZ12/EED/RBBP7/RBBP4
- Protocol Notes: Inhibition of PRC2 complex of FLAG-EZH2, EED, SUZ12, AEBP2 and RbAp48 using histone H3 peptide (21 to 44) as substrate and [3H]SAM after 1 hr
Quantity: IC50

CCCc1cc(C)[nH]c(=O)c1CNC(=O)c1cc(-c2ccc(N3CCN(C)CC3)nc2)cc2c1cnn2C(C)C; 4 nM
CCCc1cc(C)[nH]c(=O)c1CNC(=O)c1cc(-c2ccnc(N3CCN(C)CC3)c2)cc2c1cnn2C(C)C; 4 nM
Cc1cc(C)c(CNC(=O)c2cc(-c3ccc(N4CCN(C)CC4)nc3)cc3c2cnn3C(C)C)c(=O)[nH]1; 20 nM
